Provenance of the data: ChEMBL document CHEMBL1139401

test system: Mus musculus; assay: Decrease in cognitive impairment in albino mouse assessed as retention latency at 3 mg/kg, ip after 90 mins by passive avoidance reflex test; format: functional; conditions: route intraperitoneal
reported.metric: Activity

Just so you know, measured Activity for O=C1CC(c2ccc(Cl)cc2)CN=C(Cc2ccccc2)O1 (centres undefined) came out at 65.34 s

Just so you know, measured Activity for C=CCCCCCCCCC1=NCC(c2ccc(Cl)cc2)CC(=O)O1 (centres undefined) came out at 95.45 s

Just so you know, measured Activity for CCCCCCCCCCC1=NCC(c2ccc(Cl)cc2)CC(=O)O1 (centres undefined) came out at 164.56 s

Just so you know, measured Activity for CCCCCCCCCCCC1=NCC(c2ccc(Cl)cc2)CC(=O)O1 (centres undefined) came out at 72.45 s

----------
test system: Mus musculus; test: Neuropharmacological effect in albino mouse assessed as endurance time at 3 mg/kg, ip after 90 mins by rotarod test; format: functional; conditions: route intraperitoneal
Assignment: determine reported Activity for the given compounds.
Give the quantity in s, number only.

Just so you know, measured Activity for CCCCCCCCC1=NCC(c2ccc(Cl)cc2)CC(=O)O1 (stereo not given) came out at 300

Just so you know, measured Activity for CC1=NCC(c2ccc(Cl)cc2)CC(=O)O1 (stereo not given) came out at 300

Just so you know, measured Activity for C=CCCCCCCCCC1=NCC(c2ccc(Cl)cc2)CC(=O)O1 (stereo not given) came out at 155

Just so you know, measured Activity for NCC(CC(=O)O)c1ccc(Cl)cc1 (stereo not given) [BACLOFEN] came out at 254

Just so you know, measured Activity for O=C1CC(c2ccc(Cl)cc2)CN=C(Cc2ccccc2)O1 (stereo not given) came out at 0

Just so you know, measured Activity for CCCCCCCC1=NCC(c2ccc(Cl)cc2)CC(=O)O1 (stereo not given) came out at 300

Just so you know, measured Activity for CCCCCCCCCCC1=NCC(c2ccc(Cl)cc2)CC(=O)O1 (stereo not given) came out at 300

Just so you know, measured Activity for CCCCCCCCCCCCCC1=NCC(c2ccc(Cl)cc2)CC(=O)O1 (stereo not given) came out at 133

Just so you know, measured Activity for CCCCCCCC/C=C/CCCCCCCC1=NCC(c2ccc(Cl)cc2)CC(=O)O1 (stereo not given) came out at 128

Just so you know, measured Activity for CCCCCCCCCCCC1=NCC(c2ccc(Cl)cc2)CC(=O)O1 (stereo not given) came out at 145

----------
system: Mus musculus; assay: Neuropharmacological effect in albino mouse assessed as spontaneous locomotor activity at 3 mg/kg, ip after 60 mins; assay type: functional; conditions: route intraperitoneal
If the reported Activity equals or exceeds 30 m, assign 1 (yes). If not, assign 0 (no).

Query: Item CCCCCCCC/C=C/CCCCCCCC1=NCC(c2ccc(Cl)cc2)CC(=O)O1 (stereo not given) with Activity of 30 m or above?
Result: 0 (no)

Query: Item CCCCCCCC1=NCC(c2ccc(Cl)cc2)CC(=O)O1 (stereo not given) with Activity of 30 m or above?
Result: 1 (yes)

Query: Item CCCCCCCCCCC1=NCC(c2ccc(Cl)cc2)CC(=O)O1 (stereo not given) with Activity of 30 m or above?
Result: 1 (yes)

Query: Item O=C1CC(c2ccc(Cl)cc2)CN=C(Cc2ccccc2)O1 (stereo not given) with Activity of 30 m or above?
Result: 0 (no)

Query: Item CCCCCCCCCCCC1=NCC(c2ccc(Cl)cc2)CC(=O)O1 (stereo not given) with Activity of 30 m or above?
Result: 0 (no)

Query: Item C=CCCCCCCCCC1=NCC(c2ccc(Cl)cc2)CC(=O)O1 (stereo not given) with Activity of 30 m or above?
Result: 0 (no)

Query: Item CCCCCCCCC1=NCC(c2ccc(Cl)cc2)CC(=O)O1 (stereo not given) with Activity of 30 m or above?
Result: 1 (yes)

Query: Item CCCCCCCCCCCCCC1=NCC(c2ccc(Cl)cc2)CC(=O)O1 (stereo not given) with Activity of 30 m or above?
Result: 0 (no)

Query: Item CC1=NCC(c2ccc(Cl)cc2)CC(=O)O1 (stereo not given) with Activity of 30 m or above?
Result: 1 (yes)

----------
system: Mus musculus; experiment: Muscle relaxant activity in albino mouse at 3 mg/kg, ip after 45 mins by traction test; type: functional; set-up: scale not given: the % may be the effect or the level left; conditions: route intraperitoneal
reported.metric: Activity (%)
Give the quantity in %, number only.

Just so you know, measured Activity for CCCCCCCCC1=NCC(c2ccc(Cl)cc2)CC(=O)O1 (stereo not given) came out at 100

Just so you know, measured Activity for NCC(CC(=O)O)c1ccc(Cl)cc1 (stereo not given) came out at 52

Just so you know, measured Activity for O=C1CC(c2ccc(Cl)cc2)CN=C(Cc2ccccc2)O1 (stereo not given) came out at 25

Just so you know, measured Activity for CCCCCCCCCCC1=NCC(c2ccc(Cl)cc2)CC(=O)O1 (stereo not given) came out at 100

Just so you know, measured Activity for CCCCCCCCCCCC1=NCC(c2ccc(Cl)cc2)CC(=O)O1 (stereo not given) came out at 43

----------
system: Mus musculus; test: Neuropharmacological effect in albino mouse assessed as spontaneous locomotor activity at 3 mg/kg, ip after 45 mins; type: functional; settings: route intraperitoneal
If the reported Activity equals or exceeds 40 m, assign MET. If not, assign NOT MET.

Query: Item CCCCCCCCCCCCCC1=NCC(c2ccc(Cl)cc2)CC(=O)O1 (stereo not drawn) with Activity of 40 m or above?
Result: NOT MET

Query: Item CCCCCCCCCCC1=NCC(c2ccc(Cl)cc2)CC(=O)O1 (stereo not drawn) with Activity of 40 m or above?
Result: MET

Query: Item CCCCCCCC1=NCC(c2ccc(Cl)cc2)CC(=O)O1 (stereo not drawn) with Activity of 40 m or above?
Result: MET

Query: Item NCC(CC(=O)O)c1ccc(Cl)cc1 (stereo not drawn) with Activity of 40 m or above?
Result: NOT MET

Query: Item CC1=NCC(c2ccc(Cl)cc2)CC(=O)O1 (stereo not drawn) with Activity of 40 m or above?
Result: MET

Query: Item C=CCCCCCCCCC1=NCC(c2ccc(Cl)cc2)CC(=O)O1 (stereo not drawn) with Activity of 40 m or above?
Result: NOT MET

Query: Item CCCCCCCCC1=NCC(c2ccc(Cl)cc2)CC(=O)O1 (stereo not drawn) with Activity of 40 m or above?
Result: MET

Query: Item CCCCCCCC/C=C/CCCCCCCC1=NCC(c2ccc(Cl)cc2)CC(=O)O1 (stereo not drawn) with Activity of 40 m or above?
Result: NOT MET
